Test Target: nACh receptors (Rattus norvegicus, UniProt P09483+P12390)
Sequence (P09483 31-630): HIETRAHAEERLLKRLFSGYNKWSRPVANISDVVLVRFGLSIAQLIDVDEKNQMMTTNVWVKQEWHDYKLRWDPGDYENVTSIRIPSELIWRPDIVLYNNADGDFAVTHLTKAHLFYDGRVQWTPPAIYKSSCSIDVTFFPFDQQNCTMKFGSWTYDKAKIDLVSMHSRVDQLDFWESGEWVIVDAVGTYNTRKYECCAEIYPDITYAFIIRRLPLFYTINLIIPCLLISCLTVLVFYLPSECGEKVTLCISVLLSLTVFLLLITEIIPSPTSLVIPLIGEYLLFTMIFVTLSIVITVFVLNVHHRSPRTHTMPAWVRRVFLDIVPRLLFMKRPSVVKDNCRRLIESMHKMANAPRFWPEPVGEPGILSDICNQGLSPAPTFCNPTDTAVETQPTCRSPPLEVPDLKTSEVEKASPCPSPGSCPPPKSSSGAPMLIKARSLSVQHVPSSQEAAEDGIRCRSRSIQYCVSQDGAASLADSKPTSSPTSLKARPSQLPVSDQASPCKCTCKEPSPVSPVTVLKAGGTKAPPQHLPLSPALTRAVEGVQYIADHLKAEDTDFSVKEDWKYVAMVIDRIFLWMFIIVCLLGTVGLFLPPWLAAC
Sequence (P12390 25-500): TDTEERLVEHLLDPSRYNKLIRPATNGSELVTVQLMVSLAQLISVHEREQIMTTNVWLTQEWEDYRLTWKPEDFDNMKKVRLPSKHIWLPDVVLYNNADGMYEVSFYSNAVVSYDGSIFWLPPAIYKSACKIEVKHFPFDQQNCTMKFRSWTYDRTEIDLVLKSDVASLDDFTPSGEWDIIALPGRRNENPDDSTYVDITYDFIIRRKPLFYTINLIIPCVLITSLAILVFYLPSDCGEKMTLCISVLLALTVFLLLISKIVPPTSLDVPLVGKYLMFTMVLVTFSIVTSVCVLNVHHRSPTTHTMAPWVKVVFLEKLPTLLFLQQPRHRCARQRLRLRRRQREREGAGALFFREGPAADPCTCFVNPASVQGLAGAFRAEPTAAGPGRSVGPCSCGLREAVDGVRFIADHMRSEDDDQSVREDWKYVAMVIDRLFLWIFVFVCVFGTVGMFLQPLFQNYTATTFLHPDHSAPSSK
Method Description: whole-cell patch-clamp of transfected HEK293 cells, neuronal nACh receptors, 300 μM ACh
Measurement Parameters: 300 μM ACh, estimated from 5 and 20 μM data; read-out: IC50 suggested by the inhibition data
pIC50: −log10 of the molar value.

Compound: COCC[C@H]1CC2CN3CCc4c([nH]c5ccccc45)[C@](C(=O)OC)(C2)[C@H]13 [18-methoxycoronaridine]
pIC50: < 4.70

---

Test Target: 5-HT3A receptors (Mus musculus)
Sequence (P23979 24-489): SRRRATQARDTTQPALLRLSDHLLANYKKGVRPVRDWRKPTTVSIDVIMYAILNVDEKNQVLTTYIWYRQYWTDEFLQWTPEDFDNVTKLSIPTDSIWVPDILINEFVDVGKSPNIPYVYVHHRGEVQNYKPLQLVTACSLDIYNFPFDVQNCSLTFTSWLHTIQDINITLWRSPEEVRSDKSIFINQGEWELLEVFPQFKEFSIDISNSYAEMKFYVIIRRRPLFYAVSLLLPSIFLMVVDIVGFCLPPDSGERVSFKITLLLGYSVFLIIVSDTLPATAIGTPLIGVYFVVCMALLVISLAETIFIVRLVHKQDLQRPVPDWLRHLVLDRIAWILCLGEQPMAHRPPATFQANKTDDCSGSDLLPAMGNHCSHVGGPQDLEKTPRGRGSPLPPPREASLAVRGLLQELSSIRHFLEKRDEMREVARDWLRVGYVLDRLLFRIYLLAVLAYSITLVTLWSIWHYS
Method Description: whole-cell patch-clamp of transfected HEK293 cells, 5-HT3A, 100 μM serotonin
Measurement Parameters: approximate, from 20 μM data; read-out: IC50 at 5-HT3 receptors
Observable: IC50

Compound: COCC[C@H]1CC2CN3CCc4c([nH]c5ccccc45)[C@](C(=O)OC)(C2)[C@H]13 [18-methoxycoronaridine]
Result: ~20 µM
